# assay.system: human α5β3γ2 receptors (α5-GABAA receptor) (Homo sapiens (Human), UniProt P18507+P31644)
# experimental.protocol: 3H-flunitrazepam competition binding, human α5β3γ2 GABAA receptor
# run.conditions: HEK293 cell membranes, 1 nM 3H-flunitrazepam; read-out: α5-GABAAR Ki
property.measured: pKi
// returns pKi (minus log10 of molar concentration), number only

- compound: "Cc1nnc([C@@H]2CN(c3ccc(OCc4c(C)nnn4-c4ccc(C(F)F)cc4)nn3)CCN2)o1"
  pKi: 8.15
- compound: "Cc1nnn(-c2ccc(C(F)F)cc2)c1COc1ccc(N2CCN3CC(CC(C)C)NC(=O)[C@@H]3C2)nn1 (single isomer, unassigned) [Example 208]"
  pKi: 8.71
- compound: "Cc1nnn(-c2ccc(C(F)F)cc2)c1COc1ccc(N2CCN[C@H](C(=O)N(C)C)C2)nn1"
  pKi: 8.13
- compound: "Cc1nnn(-c2ccc(C(F)F)cc2)c1COc1ccc(N2CC(CO)OC2=O)nn1 (stereo not drawn)"
  pKi: 8.39
- compound: "Cc1nnn(-c2ccc(C(F)F)cc2)c1COc1ccc(N2CCN3CCNC(=O)[C@@H]3C2)cn1"
  pKi: 8.10
- compound: "Cc1nnn(-c2ccc(C(F)F)cc2)c1COc1ccc(N2CCN(CC3CCCO3)C(=O)C2)nn1 (stereo not drawn)"
  pKi: 8.87
- compound: "Cc1nnn(-c2ccc(C(F)F)cc2)c1COc1ccc(N2CC(C(=O)NC3CCOC3)C2)nn1 (stereo not drawn)"
  pKi: 8.21
- compound: "O=C1CN(c2ccc(OCc3c(Cl)nnn3-c3ccc(C(F)F)cc3)nn2)C[C@@H]2COCCN12"
  pKi: 9.15
- compound: "Cc1nnn(-c2ccc(C(F)F)cc2)c1COc1ccc(N2CCN3c4cccnc4NC(=O)[C@@H]3C2)nn1"
  pKi: 8.84
- compound: "N#Cc1nnn(-c2ccc(C(F)F)cc2)c1COc1ccc(N2CCNC(=O)C2)nn1"
  pKi: 8.69

# query: pKi of entry `Cc1nnn(-c2ccc(C(F)F)cc2)c1COc1ccc(N2CC(=O)N3CCS(=O)(=O)C[C@@H]3C2)nn1`
8.87

`Cc1nnn(-c2ccc(C(F)F)cc2)c1COc1ccc(N2CC(C(=O)NCc3ccccc3)C2)nn1` ?
8.62

`Cc1nnn(-c2ccc(F)cc2)c1COc1ccc(N2CCN(CC(F)(F)F)C(=O)C2)nn1` ?
7.35

`Cc1nnn(-c2ccc(C(F)F)cc2)c1COc1ccc(N2CCN3CCN(C4COC4)C(=O)[C@@H]3C2)nn1` ?
8.18

Cc1nnn(-c2ccc(C(F)F)cc2)c1COc1ccc(N2CC3COCCN3C2=O)nn1 (stereo not drawn) ?
8.92
